Consider the following compounds and their measured MIC readings.
# Test system: Klebsiella pneumoniae
# test: Antimicrobial activity against Klebsiella pneumoniae ATCC 13831 after 6 hrs
# Format: functional
# measurement_parameters: ATCC 13831, 6 h
Only the number, expressed in µg/mL, is required.

Data request: Quickly give me recorded MIC for COc1ccc2[nH]c(-c3cc(OC)c(OC)c(OC)c3)cc2c1
Data returned: 313

Data request: Quickly give me recorded MIC for c1ccc(-c2cc3ccccc3[nH]2)cc1
Data returned: 313

Data request: Quickly give me recorded MIC for COc1ccc2[nH]cc(-c3cc(OC)c(OC)c(OC)c3)c2c1
Data returned: 313

Data request: Quickly give me recorded MIC for COc1ccc(-c2c[nH]c3ccccc23)cc1
Data returned: 208

Data request: Quickly give me recorded MIC for COc1ccc(-c2c[nH]c3ccc(OC)cc23)cc1
Data returned: 261

Data request: Quickly give me recorded MIC for c1ccc(-c2c[nH]c3ccccc23)cc1
Data returned: 469

Data request: Quickly give me recorded MIC for COc1cc(-c2c[nH]c3ccccc23)cc(OC)c1OC
Data returned: 313
